- Target System: Δ33-D210A-APE1 (Homo sapiens, UniProt P27695 34-318, D210A;del1-33)
- Sequence (P27695 34-318 D210A): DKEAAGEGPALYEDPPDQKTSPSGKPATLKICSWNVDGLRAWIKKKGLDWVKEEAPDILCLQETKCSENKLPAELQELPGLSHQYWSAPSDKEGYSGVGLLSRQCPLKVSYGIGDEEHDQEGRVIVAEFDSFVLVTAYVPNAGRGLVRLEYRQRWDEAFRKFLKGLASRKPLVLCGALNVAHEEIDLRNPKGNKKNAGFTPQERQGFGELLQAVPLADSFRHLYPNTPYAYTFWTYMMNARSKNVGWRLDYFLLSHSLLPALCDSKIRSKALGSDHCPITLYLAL
- Protocol Text: fluorescence anisotropy; 10 mM Mg2+, 50 mM K+; 20 mM Tris pH 7.4, 50 mM KOAc (or 140 mM K+ / 50 mM Li+), 0, 1 or 10 mM Mg(OAc)2, 1 mM DTT, 22 °C, 100 nM FAM-DNA, APE1 0-5000 nM
- Condition Context: protein: recombinant; tags: His (pET28HIS-hAPE1); label: 5' FAM; intramolecular parallel G4 in K+; unfolded in Li+
Quantity: pKd
# pKd is unitless: minus log10 of the molar concentration; print number only

State its pKd: CGGGGCGGGCCGGGGGCGGGGT (structured_DNA) [VEGF-4] 6.64

Reference source for all entries: paper doi:10.1101/2021.08.25.457676
